Entry source: patent US20230159632A1

target or test system: T1, recombinant human IL-17A-mFc protein (human, UniProt Q16552 24-155, Biotinylated before the blocking assays of Examples 9 and 12 (sites not given); disulfide-linked dimer through IL-17A and the Fc.)
T1 construct: also called recombinant fusion protein IL-17A-mFc
T1 sequence: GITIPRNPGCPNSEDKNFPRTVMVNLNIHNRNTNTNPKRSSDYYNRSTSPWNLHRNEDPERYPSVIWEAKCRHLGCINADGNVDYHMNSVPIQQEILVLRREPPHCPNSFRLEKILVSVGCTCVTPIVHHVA
test: competitive FACS: blocks binding of biotinylated human IL-17A-mFc to IL-17RA on 293F cells
reported property: IC50 (µg/mL)
A number alone suffices; assume µg/mL.

- binder: "humanized antibody hu250 (antibody, human IgG4 S228P, kappa, V domains shown) VH: QVQLQESGPGLVKPSETLSLTCTVSGYSITSDYAWSWIRQPPGKGLEWIGFISYSGPTSYNPSLKSRVTISRDTSKNQFFLQLKSVTAADTAVYYCARGGDGDSFDYWGQGTTVTVSS VL: DVVMTQTPLSLSVTPGQPASISCKSSQSIVHSNGNTYLDWYLQKPGQSPKLLIYKVSNRFSGVPDRFSGSGSGTDFTLKISRVEAEDVGVYYCFQGSHFPTFGGGTKVEIKR"
  reported property: "IC50"
  measure unit: "µg/mL"
  value measured: 0.578

Now consider the entry below.
Please report the recorded IC50 for humanized antibody hu44 (antibody, human IgG4 S228P, kappa, V domains shown) VH: QIQLVQSGAEVKKPGASVKISCKASGYIFTNYGMNWMRQAPGQGLEWMGWINDHTGEPTYADKFQGRVTFTLDTSASTAYMELSRLRSDDTAVYYCANYGFGYFDYWGQGTLVTVSS VL: DVVMTQSPLSLPVTLGQPASISCRSSQSLVHSNGNSYLHWYLQKPGQSPQLLIYKVSNRFSGVPDRFSGSGSGTDFTLKISRVEAEDVGVYFCSQSTHVPYTFGQGTKLEIKR .
0.829
